Data origin: patent US10342795B2

Parameter Ba/F3 Ros1 L2026M (-IL-3) pIC50: see the listing below.
Target: Ba/F3 cells containing Ros1 L2026M (Homo sapiens, UniProt P08922, L2026M, cells depend on it, form not given)
Sequence (P08922 whole entry L2026M, form open): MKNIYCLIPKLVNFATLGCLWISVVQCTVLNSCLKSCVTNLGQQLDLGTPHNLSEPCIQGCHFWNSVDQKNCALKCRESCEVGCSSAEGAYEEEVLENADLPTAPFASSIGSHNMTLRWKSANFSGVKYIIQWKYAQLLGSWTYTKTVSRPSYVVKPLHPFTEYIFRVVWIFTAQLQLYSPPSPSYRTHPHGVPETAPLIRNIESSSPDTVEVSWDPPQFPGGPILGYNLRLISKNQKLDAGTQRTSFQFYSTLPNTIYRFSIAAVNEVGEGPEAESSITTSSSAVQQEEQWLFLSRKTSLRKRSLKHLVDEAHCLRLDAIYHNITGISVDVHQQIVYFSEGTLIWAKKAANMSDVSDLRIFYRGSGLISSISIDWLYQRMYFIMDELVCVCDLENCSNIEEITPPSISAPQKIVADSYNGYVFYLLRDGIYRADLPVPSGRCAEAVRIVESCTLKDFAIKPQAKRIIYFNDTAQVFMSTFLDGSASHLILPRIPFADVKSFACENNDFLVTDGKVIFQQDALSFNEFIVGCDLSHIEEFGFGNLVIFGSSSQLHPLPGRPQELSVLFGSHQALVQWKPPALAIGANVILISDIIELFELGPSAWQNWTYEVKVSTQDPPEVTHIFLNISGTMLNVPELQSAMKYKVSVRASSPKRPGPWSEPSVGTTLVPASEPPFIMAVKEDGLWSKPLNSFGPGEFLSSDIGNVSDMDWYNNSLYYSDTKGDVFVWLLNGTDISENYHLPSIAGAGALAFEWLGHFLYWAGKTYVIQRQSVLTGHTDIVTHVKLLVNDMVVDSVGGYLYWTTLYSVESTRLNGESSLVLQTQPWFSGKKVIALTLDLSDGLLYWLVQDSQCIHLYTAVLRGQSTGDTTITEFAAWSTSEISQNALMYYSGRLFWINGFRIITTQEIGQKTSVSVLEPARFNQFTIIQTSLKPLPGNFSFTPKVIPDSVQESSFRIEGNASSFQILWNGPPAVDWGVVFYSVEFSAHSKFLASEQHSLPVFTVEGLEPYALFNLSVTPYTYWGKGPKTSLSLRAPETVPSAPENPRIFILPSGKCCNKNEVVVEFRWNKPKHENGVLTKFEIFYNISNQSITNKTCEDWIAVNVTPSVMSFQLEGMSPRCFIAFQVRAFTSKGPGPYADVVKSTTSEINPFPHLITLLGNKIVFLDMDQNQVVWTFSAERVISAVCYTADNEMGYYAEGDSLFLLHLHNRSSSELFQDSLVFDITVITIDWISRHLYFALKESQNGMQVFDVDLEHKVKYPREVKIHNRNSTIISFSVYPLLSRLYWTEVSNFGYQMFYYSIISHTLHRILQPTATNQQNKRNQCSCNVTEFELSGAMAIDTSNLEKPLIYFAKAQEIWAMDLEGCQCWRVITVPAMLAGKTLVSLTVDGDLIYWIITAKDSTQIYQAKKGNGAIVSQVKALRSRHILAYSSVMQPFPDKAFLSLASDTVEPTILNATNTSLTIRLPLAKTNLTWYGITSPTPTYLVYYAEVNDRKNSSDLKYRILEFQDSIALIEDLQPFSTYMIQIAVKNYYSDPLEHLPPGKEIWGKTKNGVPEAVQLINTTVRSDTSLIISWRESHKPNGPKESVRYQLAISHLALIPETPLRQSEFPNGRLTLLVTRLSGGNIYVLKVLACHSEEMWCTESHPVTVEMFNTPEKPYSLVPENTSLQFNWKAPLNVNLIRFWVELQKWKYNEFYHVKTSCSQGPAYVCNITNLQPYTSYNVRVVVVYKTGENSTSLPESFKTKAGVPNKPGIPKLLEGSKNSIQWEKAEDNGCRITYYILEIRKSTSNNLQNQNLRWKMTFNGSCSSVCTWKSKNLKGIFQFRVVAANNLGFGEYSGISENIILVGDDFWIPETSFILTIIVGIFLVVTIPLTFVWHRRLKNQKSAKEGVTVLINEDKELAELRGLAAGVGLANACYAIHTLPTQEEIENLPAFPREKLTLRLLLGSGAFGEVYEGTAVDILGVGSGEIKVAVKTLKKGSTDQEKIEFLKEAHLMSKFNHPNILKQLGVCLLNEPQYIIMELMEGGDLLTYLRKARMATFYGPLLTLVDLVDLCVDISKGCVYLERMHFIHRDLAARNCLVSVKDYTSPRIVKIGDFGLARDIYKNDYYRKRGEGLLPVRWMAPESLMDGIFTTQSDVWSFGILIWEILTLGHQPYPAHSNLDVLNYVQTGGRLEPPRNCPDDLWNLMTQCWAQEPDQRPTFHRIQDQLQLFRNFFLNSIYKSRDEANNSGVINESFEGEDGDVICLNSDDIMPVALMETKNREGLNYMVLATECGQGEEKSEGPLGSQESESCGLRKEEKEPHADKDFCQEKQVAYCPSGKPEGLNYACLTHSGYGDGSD
Test: Ba/F3-Ros1 cell proliferation assay, L2026M gatekeeper mutant
Assay type: cell-based, murine
Details: -log IC50 (M), no IL-3
OUTCOME MEASURE: Ba/F3 Ros1 L2026M (-IL-3) pIC50

- CC(C)c1ccc(COc2ccc(-c3c(-c4ccncc4)nn4c3NCCC4CO)cc2)cc1 (centres unmarked): 6.8
- Cc1ccn2nc(-c3ccncc3)c(-c3ccc(OCc4ccc(C(C)C)cc4)cc3F)c2n1: 7.5
- CC(C)c1ccc(COc2cc(F)c(-c3c(-c4ccncc4)nn4c3NCC4)cc2F)cc1: 7.7
- CC(C)c1ccc(COc2ccc(-c3c(-c4ccncc4)nn4c3NCCC4)c(F)c2)cc1: 7.8
- CC(C)c1ccc(COc2ccc(-c3c(-c4ccncc4)nn4c3NCC4)cc2)c(F)c1F: 7.5
- CC(C)c1ccc(COc2ccc(-c3c(-c4ccncc4)nn4c3N(CCCN)CC4)cc2)cc1: 6
- CC(C)c1ccc(COc2ccc(-c3c(-c4ccncn4)nn4c3NCC4)cc2)cc1: 6.6
- CC(C)c1ccc(COc2ccc(-c3c(-c4ccncc4)nn4c3NCC4)c(F)c2)cc1: <5

* * *

Molecular target: Ros1 enzyme (Homo sapiens)
Construct: 0.5 μg/ml Ros1 enzyme
Sequence (P08922 28-2347): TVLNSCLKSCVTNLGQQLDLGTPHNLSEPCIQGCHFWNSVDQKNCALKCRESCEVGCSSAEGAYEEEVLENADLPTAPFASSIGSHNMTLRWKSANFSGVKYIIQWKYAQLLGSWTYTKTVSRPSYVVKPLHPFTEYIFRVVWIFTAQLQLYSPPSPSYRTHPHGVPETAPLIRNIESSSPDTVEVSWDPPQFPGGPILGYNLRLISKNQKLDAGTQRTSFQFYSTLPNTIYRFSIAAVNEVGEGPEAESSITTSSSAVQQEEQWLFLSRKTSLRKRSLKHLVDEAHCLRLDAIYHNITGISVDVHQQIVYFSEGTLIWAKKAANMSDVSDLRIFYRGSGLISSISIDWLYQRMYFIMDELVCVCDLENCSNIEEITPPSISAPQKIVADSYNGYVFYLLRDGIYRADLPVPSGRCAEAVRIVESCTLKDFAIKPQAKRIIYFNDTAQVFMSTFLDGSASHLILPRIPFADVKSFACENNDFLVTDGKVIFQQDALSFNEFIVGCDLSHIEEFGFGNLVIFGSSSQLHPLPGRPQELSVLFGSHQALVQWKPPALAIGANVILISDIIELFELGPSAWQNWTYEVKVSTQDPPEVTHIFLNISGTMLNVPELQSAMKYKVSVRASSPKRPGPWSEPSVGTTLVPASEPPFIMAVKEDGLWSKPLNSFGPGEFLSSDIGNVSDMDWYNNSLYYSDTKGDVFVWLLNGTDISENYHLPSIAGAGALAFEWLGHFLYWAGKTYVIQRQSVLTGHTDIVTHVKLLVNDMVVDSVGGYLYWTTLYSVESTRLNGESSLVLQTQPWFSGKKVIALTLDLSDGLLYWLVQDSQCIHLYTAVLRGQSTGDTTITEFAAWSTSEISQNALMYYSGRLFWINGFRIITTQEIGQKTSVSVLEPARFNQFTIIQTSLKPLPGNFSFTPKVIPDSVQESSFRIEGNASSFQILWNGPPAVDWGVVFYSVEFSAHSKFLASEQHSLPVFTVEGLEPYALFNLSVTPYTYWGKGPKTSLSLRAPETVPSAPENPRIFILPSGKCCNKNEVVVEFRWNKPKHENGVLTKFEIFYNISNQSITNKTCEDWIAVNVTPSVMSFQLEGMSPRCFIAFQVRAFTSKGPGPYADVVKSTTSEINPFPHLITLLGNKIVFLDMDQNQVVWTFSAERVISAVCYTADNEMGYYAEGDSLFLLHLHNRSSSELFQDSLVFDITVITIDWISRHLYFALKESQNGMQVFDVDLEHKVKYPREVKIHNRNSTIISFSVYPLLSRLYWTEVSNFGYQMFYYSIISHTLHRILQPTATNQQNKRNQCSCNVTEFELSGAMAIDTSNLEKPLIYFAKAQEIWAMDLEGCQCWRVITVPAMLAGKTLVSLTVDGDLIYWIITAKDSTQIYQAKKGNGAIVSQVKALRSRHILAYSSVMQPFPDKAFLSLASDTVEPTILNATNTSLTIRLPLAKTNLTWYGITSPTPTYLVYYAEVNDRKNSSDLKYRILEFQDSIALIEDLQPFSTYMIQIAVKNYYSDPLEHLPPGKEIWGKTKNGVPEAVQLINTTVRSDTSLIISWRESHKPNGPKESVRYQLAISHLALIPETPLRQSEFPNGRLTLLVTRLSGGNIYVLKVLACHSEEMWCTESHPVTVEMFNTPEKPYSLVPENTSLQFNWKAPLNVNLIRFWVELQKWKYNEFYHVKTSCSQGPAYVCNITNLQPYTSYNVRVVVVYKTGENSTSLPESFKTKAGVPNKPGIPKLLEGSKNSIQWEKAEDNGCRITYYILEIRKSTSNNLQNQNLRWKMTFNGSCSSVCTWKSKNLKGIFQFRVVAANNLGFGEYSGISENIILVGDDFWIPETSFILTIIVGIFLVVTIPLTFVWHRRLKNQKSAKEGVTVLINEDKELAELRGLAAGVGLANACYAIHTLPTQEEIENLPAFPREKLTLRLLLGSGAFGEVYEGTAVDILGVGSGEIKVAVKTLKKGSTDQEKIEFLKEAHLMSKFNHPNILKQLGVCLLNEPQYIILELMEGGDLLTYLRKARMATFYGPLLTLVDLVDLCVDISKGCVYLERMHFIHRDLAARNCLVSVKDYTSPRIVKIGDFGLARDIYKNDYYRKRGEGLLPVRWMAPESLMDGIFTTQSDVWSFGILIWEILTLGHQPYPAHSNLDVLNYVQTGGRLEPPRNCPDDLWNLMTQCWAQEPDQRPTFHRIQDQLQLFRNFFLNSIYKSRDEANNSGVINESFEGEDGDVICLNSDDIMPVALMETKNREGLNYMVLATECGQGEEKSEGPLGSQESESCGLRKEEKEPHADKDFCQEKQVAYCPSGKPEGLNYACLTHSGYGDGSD
Experiment: Ros1 enzymatic assay
Assay type: biochemical
Details: -log IC50 (M); 20 μM ATP, 120 min at room temperature; read-out: ROS1 pIC50 (converted)
OUTCOME MEASURE: IC50 (M)

- CNC(=O)c1ccnc2c(-c3ccc(OCc4ccc(C(C)C)cc4)cc3)c(-c3ccncc3)nn12: 5.01e-07
- CC(C)c1ccc(COc2ccc(-c3c(-c4ccncc4)nn4c3NCC4)cc2)cc1C#N: 2e-07
- CC(C)c1ccc(COc2ccc(-c3c(-c4ccncc4)nn4cccnc34)c(F)c2)cc1: 2.51e-08
- CC(C)c1ccc(COc2ccc(-c3c(-c4ccncc4)nn4c3NC(=O)CC4)cc2)cc1: 1.26e-07
- CC(C)c1ccc(COc2ccc(-c3c(-c4ccncc4)nn4c3NCC4)cn2)cc1: 1e-07
- CC(C)c1ccc(COc2ccc(-c3c(-c4ccncn4)nn4c3NCC4)cc2)cc1: 3.98e-07
- CC(C)c1ccc(COc2ccc(-c3c(-c4ccncc4)nn4c3N(CCO)C(=O)CC4)cc2)cc1: 3.16e-07
- CC(C)c1ccc(COc2ccc(-c3c(-c4ccncc4)nn4c3NC(=O)C4)cc2)cc1: 1.58e-07
- CC(C)c1ccc(COc2ccc(-c3c(-c4ccncc4)nn4ccc(=O)[nH]c34)cc2)cc1: 6.31e-08
- CC(C)c1ccc(COc2ccc(-c3c(-c4ccncc4)nn4c3NCC4)cc2)cc1: 1.26e-07
- CC(C)c1ccc(COc2ccc(-c3c(-c4ccncc4)nn4c3NC(CO)CC4)cc2)cc1 (stereo not drawn): 6.31e-08
- CC(C)c1ccc(COc2ccc(-c3c(-c4ccncc4)nn4c3N(CCCN)CC4)cc2)cc1: 5.01e-07
- CC(C)c1ccc(COc2ccc(-c3c(-c4ccncc4)nn4c3NCCC4)cc2)cc1: 3.98e-08
- CC(C)c1ccc(COc2ccc(-c3c(-c4ccncc4)nn4c3N(C)C(=O)CC4)cc2)cc1: 5.01e-07
- CC(C)c1ccc(COc2ccc(-c3c(-c4ccncc4)nn4c3NCC4)c(C#N)c2)cc1: 6.31e-08
- CCOC(=O)c1ccnc2c(-c3ccc(OCc4ccc(C(C)C)cc4)cc3)c(-c3ccncc3)nn12: 5.01e-07
- CC(C)c1ccc(COc2ccc(-c3c(-c4ccncn4)nn4c3NCC4)c(F)c2)cc1: 2.51e-07
